Reference source: ChEMBL document CHEMBL1268993

# subject of test: Mitogen-activated protein kinase 14 (Homo sapiens)
# Sequence (Q16539 whole entry): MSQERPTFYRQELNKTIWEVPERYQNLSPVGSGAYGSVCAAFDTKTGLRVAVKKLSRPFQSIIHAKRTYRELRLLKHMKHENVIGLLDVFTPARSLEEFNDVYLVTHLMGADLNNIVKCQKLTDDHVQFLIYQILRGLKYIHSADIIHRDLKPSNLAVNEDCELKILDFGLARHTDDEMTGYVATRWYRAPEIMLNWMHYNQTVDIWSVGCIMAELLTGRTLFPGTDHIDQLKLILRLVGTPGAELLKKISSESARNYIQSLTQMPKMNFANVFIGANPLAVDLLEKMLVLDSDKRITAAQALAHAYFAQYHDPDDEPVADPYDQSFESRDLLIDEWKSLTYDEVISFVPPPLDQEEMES
# test name: Inhibition of p38alpha by immunosorbent based assay
assay readout: IC50 (nM)

Take a look at these entries with their results.
Measured IC50 (Mitogen-activated protein kinase 14 (Homo sapiens)), entry `CSc1nc(-c2ccc(F)cc2)c(-c2ccnc(NC(C)=O)c2)n1CCCCCl` : 180

Measured IC50 (Mitogen-activated protein kinase 14 (Homo sapiens)), entry `CCC(CC)n1c(SC)nc(-c2ccc(F)cc2)c1-c1ccnc(NC(C)=O)c1` : 570

Measured IC50 (Mitogen-activated protein kinase 14 (Homo sapiens)), entry `CSc1nc(-c2ccc(F)cc2)c(-c2ccnc(NC(C)=O)c2)n1CCCCC(=O)O` : 770

Measured IC50 (Mitogen-activated protein kinase 14 (Homo sapiens)), entry `CSc1nc(-c2ccc(F)cc2)c(-c2ccnc(NC(=O)C3CC3)c2)n1C` : 170

Measured IC50 (Mitogen-activated protein kinase 14 (Homo sapiens)), entry `CSc1nc(-c2ccc(F)cc2)c(-c2ccnc(NC(C)=O)c2)n1CCCO` : 150

Measured IC50 (Mitogen-activated protein kinase 14 (Homo sapiens)), entry CSc1nc(-c2ccc(F)cc2)c(-c2ccnc(NC(C)=O)c2)n1CC(O)CO (stereo not given) : 1490

Measured IC50 (Mitogen-activated protein kinase 14 (Homo sapiens)), entry `CSc1nc(-c2ccc(F)cc2)c(-c2ccnc(NC(C)=O)c2)n1CCCCl` : 17

Measured IC50 (Mitogen-activated protein kinase 14 (Homo sapiens)), entry `CCn1c(SC)nc(-c2ccc(F)cc2)c1-c1ccnc(NC(=O)Cc2ccc(F)cc2)c1` : 93

Measured IC50 (Mitogen-activated protein kinase 14 (Homo sapiens)), entry `COCCn1c(SC)nc(-c2ccc(F)cc2)c1-c1ccnc(NC(=O)c2cccs2)c1` : 240

Measured IC50 (Mitogen-activated protein kinase 14 (Homo sapiens)), entry `CCN(CC)C(=O)CCn1c(SC)nc(-c2ccc(F)cc2)c1-c1ccnc(NC(C)=O)c1` : 1200

[A] CSc1nc(-c2ccc(F)cc2)c(-c2ccnc(NC(=O)/C=C/c3c(Cl)cccc3Cl)c2)n1C
[B] CSc1nc(-c2ccc(F)cc2)c(-c2ccnc(NC(=O)c3ccco3)c2)[nH]1
[C] CSc1nc(-c2ccc(F)cc2)c(-c2ccnc(NC(=O)/C=C/c3ccc(C)cc3)c2)[nH]1
[D] CSc1nc(-c2ccc(F)cc2)c(-c2ccnc(NC(C)=O)c2)n1C(CCO)CCO
[E] CSc1nc(-c2ccc(F)cc2)c(-c2ccnc(NC(C)=O)c2)n1CCC(=O)O
Please order the records by their reported IC50, lowest number first. Please list each label once, in the requested order. B, C, A, E, D
